Hello, the source for this data is ChEMBL document CHEMBL4699438, in case you need it.

Overview of recorded IC50 for various compounds
assay_target: UniProt:P37840
experiment_notes: Inhibition of wild type human alpha-synuclein fibrillization expressed in Escherichia coli BL21(DE3)pLysS by thioflavin-T based fluorescence assay
Entry rule: numbers only, all in µM.

Record excerpt, results attached:
• CC(C)=CCC/C(C)=C/CC/C(C)=C/CC/C(C)=C/CC1=C(C)C(=O)c2ccccc2C1=O = 15
• O=C1C=CC(=O)c2ccccc21 = 15
• CC1=CC(=O)c2ccccc2C1=O = 15

[in] Look up IC50 of `CC1=C(C/C=C(\C)CCC[C@H](C)CCC[C@H](C)CCCC(C)C)C(=O)c2ccccc2C1=O` and report it.
[out] 15

----------
assay_target: Alpha-synuclein (Homo sapiens)
experiment_notes: Binding affinity to alpha-synuclein LMV 100 kDa (unknown origin) expressed in Escherichia coli BL21(DE3) cells incubated for 30 mins by spectrofluorometric analysis
metric: Kd (µM)
Entry rule: numbers only, all in µM.

[in] Look up Kd of COc1cc(/C=C/C(=O)CC(=O)/C=C/c2ccc(O)c(OC)c2)ccc1O [CURCUMIN] and report it.
[out] 5

----------
experiment_notes: Binding affinity to alpha-synuclein A69C/F94W double-mutant (unknown origin) expressed in Escherichia coli BL21(DE3) cells assessed as binding constant for binding two molecule at 10 uM incubated for 10 mins by fluorescence analysis
Set-up: species or system Homo sapiens
metric: Kd
# output: numeric value plus its unit

[in] Look up Kd of COc1cc(/C=C/C(=O)CC(=O)/C=C/c2ccc(O)c(OC)c2)ccc1O [CURCUMIN] and report it.
[out] 7.7 µM

----------
assay_target: Alpha-synuclein (Homo sapiens)
experiment_notes: Inhibition of alpha-synuclein aggregation (unknown origin) incubated for 8 days by thioflavin S based fluorescence assay
Assign labels as follows, please: true for IC50 below 60 µM; false for IC50 equal to or exceeding 60 µM.

Below are worked cases with known answers.
- CC(Cc1ccc(O)c(O)c1)C(C)Cc1ccc(O)c(O)c1 (stereo unspecified) [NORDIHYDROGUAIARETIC ACID]: true
- C[C@]12CCC(=O)C=C1CC[C@@H]1[C@@H]2CC[C@]2(C)C(=O)CC[C@@H]12: false
- C[C@]12CC[C@H]3[C@@H](CCC4=CC(=O)CC[C@@]43C)[C@@H]1CC[C@@H]2O: false
- C[C@]12CC[C@@H]3c4ccc(O)cc4CC[C@H]3[C@@H]1C[C@@H](O)[C@@H]2O: true

// switching to the query compound
[in] Could you please tell me whether IC50 recorded for `C[C@]12CC[C@@H]3c4ccc(O)cc4CC[C@H]3[C@@H]1CCC2=O` is less than 60 µM?
[out] false

----------
assay_target: Alpha-synuclein (Homo sapiens, UniProt P37840)
experiment_notes: Binding affinity to alpha-synuclein oligomer (unknown origin) expressed in Escherichia coli BL21(DE3) cells incubated for 30 mins by spectrofluorometric analysis
metric: Kd (nM)
Entry rule: numbers only, all in nM.

[in] Would you please give the reported Kd of `COc1cc(/C=C/C(=O)CC(=O)/C=C/c2ccc(O)c(OC)c2)ccc1O` with Alpha-synuclein (Homo sapiens, UniProt P37840)?
[out] 2000

----------
Overview of recorded log10 of IC50 for various compounds
assay_target: Alpha-synuclein (Homo sapiens, UniProt P37840)
experiment_notes: Inhibition of alpha-synuclein fibril formation (unknown origin) incubated for 24 hrs to 7 days by thioflavin S based fluorescence assay
Record value = log10 of IC50 given in nM.

• CC1=C(/C=C/C(C)=C/C=C/C(C)=C/C=O)C(C)(C)CCC1 = 2.28
• COc1cc(/C=C/C(=O)CC(=O)/C=C/c2ccc(O)c(OC)c2)ccc1O = 2.34
• CO[C@H]1/C=C/O[C@@]2(C)Oc3c(C)c(O)c4c(O)c(c(/C=N/N5CCN(C)CC5)c(O)c4c3C2=O)NC(=O)/C(C)=C\C=C\[C@H](C)[C@H](O)[C@@H](C)[C@@H](O)[C@@H](C)[C@H](OC(C)=O)[C@@H]1C = 3.85
• O=c1c(O)c(-c2cc(O)c(O)c(O)c2)oc2cc(O)cc(O)c12 = 2.34
• COc1cc(/C=C/C(=O)O)ccc1O [FERULATE] = 2.88
• Oc1cc(O)c2c(c1)O[C@H](c1ccc(O)c(O)c1)[C@H](O)C2 [(-)-EPICATECHIN] = 2.90

Please turn your attention to the following entry.
[in] Would you please give the reported log10 of IC50 of `CC1=C(/C=C/C(C)=C/C=C/C(C)=C/C(=O)O)C(C)(C)CCC1` with Alpha-synuclein (Homo sapiens, UniProt P37840)?
[out] 3.48

----------
assay_target: Alpha-synuclein (Homo sapiens, UniProt P37840)
experiment_notes: Inhibition of alpha-synuclein fibril formation (unknown origin) incubated for 6 days by thioflavin S based fluorescence assay
metric: IC50 (µM)
Entry rule: numbers only, all in µM.

- C#CCN(C)[C@H](C)Cc1ccccc1: 0.27

[in] Look up IC50 of `CC(C)C[C@H]1C(=O)N2CCC[C@H]2[C@]2(O)O[C@](NC(=O)[C@@H]3C=C4c5cccc6[nH]c(Br)c(c56)C[C@H]4N(C)C3)(C(C)C)C(=O)N12` and report it.
[out] 24.7

[in] Look up IC50 of CCCN1C[C@H](CSC)C[C@@H]2c3cccc4[nH]cc(c34)C[C@H]21 [PERGOLIDE] and report it.
[out] 7.9

[in] Look up IC50 of `NCCc1ccc(O)c(O)c1` and report it.
[out] 0.53

----------
assay_target: Alpha-synuclein (Homo sapiens)
experiment_notes: Inhibition of human alpha-synuclein filament formation expressed in Escherichia coli BL21(DE3) cells incubated for 72 hrs by thioflavin S based fluorescence assay
metric: IC50

Record excerpt, results attached:
* O=C(O[C@@H]1Cc2c(O)cc(O)cc2O[C@H]1c1cc(O)c(O)c(O)c1)c1cc(O)c(O)c(O)c1 [GALLOCATECHIN GALLATE] | 3.6 µM
* NCCc1ccc(O)c(O)c1 | 7.1 µM
* CO[C@H]1/C=C/O[C@@]2(C)Oc3c(C)c(O)c4c(O)c(c(/C=N/N5CCN(C)CC5)c(O)c4c3C2=O)NC(=O)/C(C)=C\C=C\[C@H](C)[C@H](O)[C@@H](C)[C@@H](O)[C@@H](C)[C@H](OC(C)=O)[C@@H]1C | 46.2 µM
* Oc1cc(O)c2cc(O)c(-c3ccc(O)c(O)c3)[o+]c2c1 [CYANIDIN CHLORIDE] | 10.3 µM
* Oc1cc(O)c2c(c1)O[C@H](c1ccc(O)c(O)c1)[C@H](O)[C@H]2c1c(O)cc(O)c2c1O[C@H](c1ccc(O)c(O)c1)[C@H](O)C2 | 4.3 µM
* O=c1c(O)c(-c2cc(O)c(O)c(O)c2)oc2cc(O)cc(O)c12 | 13.3 µM

Please turn your attention to the following entry.
[in] Look up IC50 of `O=c1c(O)c(-c2ccc(O)c(O)c2)oc2cc(O)cc(O)c12` and report it.
[out] 20 µM

----------
assay_target: Alpha-synuclein (Homo sapiens)
experiment_notes: Inhibition of human alpha-synuclein filament formation expressed in Escherichia coli BL21(DE3) cells incubated for 72 hrs by thioflavin S based fluorescence assay
Overview of recorded IC50 for various molecules
Entry rule: numbers only, all in µM.

Record excerpt, results attached:
* O=c1cc(-c2ccc(O)c(O)c2)oc2cc(O)cc(O)c12 | 28
* Cc1cc(O)c2c(=O)c3c(O)cc(O)c4c5c(O)cc(O)c6c(=O)c7c(O)cc(C)c8c1c2c(c34)c(c78)c65 | 7.5
* Oc1cc(O)c2c(c1)O[C@H](c1cc(O)c(O)c(O)c1)[C@@H](O)C2 | 8.9

Please turn your attention to the following entry.
[in] Look up IC50 of `O=c1c(O)cccc2cc(O)c(O)c(O)c12` and report it.
[out] 12.9

----------
Overview of recorded inhibition for various compounds
assay_target: UniProtKB P37840
experiment_notes: Inhibition of alpha-synuclein aggregation (unknown origin) expressed in Escherichia coli BL21(DE3) cells
assay_setup: concentration not given here
Entry rule: numbers only, all in %.

Record excerpt, results attached:
- CC[C@H](C)[C@H](NC(=O)[C@H](Cc1c[nH]c2ccccc12)NC(=O)[C@H](CCCCN)NC(=O)CNC(=O)[C@H]1CCCN1C(=O)[C@@H](NC(=O)[C@H](Cc1c[nH]c2ccccc12)NC(=O)[C@@H](NC(=O)[C@@H](NC(=O)[C@H](CC(C)C)NC(=O)[C@H](CS)NC(=O)[C@@H](N)CCCCN)[C@@H](C)O)C(C)C)[C@@H](C)CC)C(=O)N[C@H](C(=O)N[C@H](C(=O)N[C@@H](CS)C(=O)N[C@@H](C)C(=O)O)C(C)C)[C@@H](C)O: 50
- CC[C@H](C)[C@H](NC(=O)[C@H](Cc1c[nH]c2ccccc12)NC(=O)[C@H](CCCCN)NC(=O)CN)C(=O)N[C@H](C(=O)N[C@H](C(=O)N[C@@H](CO)C(=O)N[C@H](C(=O)N1CCC[C@@H]1C(=O)N1CCC[C@H]1C(=O)N[C@@H](CCCCN)C(=O)N[C@@H](CCCCN)C(=O)N[C@@H](CC(C)C)C(=O)N[C@H](C(=O)N[C@H](C(=O)N[C@@H](Cc1c[nH]c2ccccc12)C(=O)N[C@H](C(=O)N1CCC[C@@H]1C(=O)O)[C@@H](C)CC)C(C)C)[C@@H](C)O)[C@@H](C)CC)C(C)C)[C@@H](C)O: 65
- CCC(=O)N[C@@H](Cc1c[nH]c2ccccc12)C(=O)N[C@H](C(=O)N1CCC[C@@H]1C(=O)NCC(=O)N[C@@H](CCCCN)C(=O)N[C@@H](Cc1c[nH]c2ccccc12)C(=O)N[C@H](C(=O)NCC(N)=O)[C@@H](C)O)[C@@H](C)CC: 50

[in] Look up inhibition of `CC[C@H](C)[C@H](NC(=O)[C@H](Cc1c[nH]c2ccccc12)NC(=O)[C@H](CCCCN)NC(=O)CNC(=O)[C@H]1CCCN1C(=O)[C@@H](NC(=O)[C@H](Cc1c[nH]c2ccccc12)NC(=O)[C@@H](NC(=O)[C@@H](NC(=O)[C@H](CC(C)C)NC(=O)[C@H](CCCCN)NC(=O)[C@@H](N)CCCCN)[C@@H](C)O)C(C)C)[C@@H](C)CC)C(=O)N[C@H](C(=O)N[C@H](C(=O)N[C@@H](CO)C(=O)N[C@@H](C)C(=O)O)C(C)C)[C@@H](C)O` and report it.
[out] 75
